B1: CPEB3 Ribozyme (parent)
chain: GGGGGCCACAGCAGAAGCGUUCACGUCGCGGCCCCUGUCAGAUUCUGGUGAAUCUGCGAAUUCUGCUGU

variants of: B1; assay: self-cleavage, relative activity (ratio to wild type); higher = more cleavage; co-transcriptional
Measurement Name: self-cleavage
Answers are plain numbers.

Looking for the measured self-cleavage of C7A U69G , can you help? 0.897

What value of self-cleavage has been reported for the following variant? A13G G48U 0.914

Need self-cleavage of G1A U20C , thanks. 0.0855

Which self-cleavage value is on record for C35G U38A ? 0.417

For each listed entry, give its self-cleavage.
1. G11A U67G
2. G4A A60U
3. G2A A13C
4. A15U U43C
5. C45U U69C
6. G48U U53C

1: 0.98; 2: 0.264; 3: 0.109; 4: 0.731; 5: 1.08; 6: 1.04

Data provenance is the RNAGym collection of RNA variant scans (doi:10.7554/elife.80360).
